# reported growth; entries follow
System: OVCAR-8 ovarian
EXPERIMENT_NOTES: NCI-60 one-dose screen, 48 h (100 = growth as untreated, 0 = no growth, -100 = all killed)
REPORTED_CONDITIONS: 10 µM unless noted
This is part of a sample that, as a whole, favours compounds with a hit. Of some 83,000 tested, about 20% had one in any assay. Calls of active or inactive are those of the source. Rule for the calls: active = growth percent below 10; inactive = the rest.

Below: 5 compounds and their reported growth.
[[record]]
compound = "CC(C)=CCCC(C)c1ccc(C)c2c1OCN(CCCCCO)C2 (configuration not stated)"
readout_value = "90.1% (inactive)"

[[record]]
compound = "CSc1nc(N)c(NS(=O)(=O)c2ccc(C(C)=O)cc2)c(=O)[nH]1"
readout_value = "107% (inactive)"

[[record]]
compound = "CCc1ccccc1-n1c(-c2ccc(OC)cc2)cc(-c2ccc(OC)cc2)c(C#N)c1=O"
readout_value = "41.7% (inactive)"

[[record]]
compound = "CCOC(=O)c1c2c(n3cccc(F)c13)C(=O)c1ncccc1C2=O"
readout_value = "19.3% (inactive)"

[[record]]
compound = "CCN1C(=S)N(c2ccccc2)C2C1NN=c1s/c(=C3\\C(=O)N(C(C)C)c4ccccc43)c(=O)n12 (configuration not stated)"
readout_value = "54.1% (inactive)"


input: // query growth value for entry CC1CCN(S(=O)(=O)c2ccc(S(=O)(=O)N3CCCC(c4nc5c(nnn5Cc5cccc(Cl)c5)c(=O)[nH]4)C3)cc2)CC1 (configuration not stated)
output: 61.5% (inactive)

input: // query growth value for entry CCOC(=O)C1=C(N)Oc2c(sc3c(F)cccc23)C1c1ccc(O)cc1 (configuration not stated)
output: 44.1% (inactive)

input: // query growth value for entry CCOC(=O)c1ccc(NC(=O)c2nc(-c3cc(OC)c(OC)c(OC)c3)n(-c3ccc(Cl)cc3)n2)cc1
output: 91.5% (inactive)

input: // query growth value for entry Cc1ccccc1/C=C/C(=O)c1cccc(OCCCOc2cccc(C(=O)/C=C/c3ccccc3C)c2)c1
output: 101% [3 µM] (inactive)

input: // query growth value for entry Nc1n[nH]c2cccc(C#Cc3cccc(C(=O)Nc4cc(C(F)(F)F)cc(C(F)(F)F)c4)c3)c12
output: 82.9% (inactive)

input: // query growth value for entry CCN(CC)S(=O)(=O)c1ccc(S(=O)(=O)N2CCC[C@@H](C(=O)N3CCN(c4nc(C(C)C)no4)CC3)C2)cc1
output: 61.3% (inactive)

input: // query growth value for entry CC1CN(S(=O)(=O)c2oc(-c3ccc(Cl)cc3)nc2C#N)CC(C)O1 (configuration not stated)
output: 54.6% (inactive)

input: // query growth value for entry CC(C)c1ccc(-n2c(=S)[nH]c3sc4cc(O)ccc4c3c2=O)cc1
output: 102% (inactive)

input: // query growth value for entry O=C(CN1CCCCC1)Nc1nc(-c2cc3ccccc3oc2=O)cs1
output: 98.3% (inactive)

input: // query growth value for entry C=CCn1c(C)nc2ccc(Nc3nc(Nc4ccc5nc(C)n(CC=C)c5c4)c4ccccc4n3)cc21
output: -48.6% (active)

input: // query growth value for entry CS(=O)(=O)Nc1cncc(-c2ccc3ncnc(Nc4cncc(Cl)c4)c3c2)c1
output: 87.1% (inactive)

----------
Tested on: SF-268 CNS
EXPERIMENT_NOTES: NCI-60 one-dose screen, 48 h (100 = growth as untreated, 0 = no growth, -100 = all killed)
REPORTED_CONDITIONS: 10 µM unless noted
Compounds without any hit were thinned out: in the full panel of roughly 83,000, 20% have a hit.
API: label(entry) gives true if the entry's growth is strictly smaller than 60%; on equality or larger values it gives false.

Completed entries (count: 2):
[[record]]
record_smiles = "O=C(Nc1nc2ccc(C(=O)N3CCN(/C=C/c4ccccc4)CC3)cc2s1)c1ccc(NCCc2ccccc2)c([N+](=O)[O-])c1"
assigned_label = "false"

[[record]]
record_smiles = "CCc1ccccc1-n1c(-c2ccc(OC)cc2)cc(-c2ccc(OC)cc2)c(C#N)c1=O"
assigned_label = "true"


input: Does the reported growth of O=C(CSc1nnc(-c2cnccn2)n1-c1ccccc1)c1ccc(Cl)cc1 stay below 60%?
output: false

input: Does the reported growth of O=C(N/N=C/c1ccc(Cl)cc1)c1[nH]c2ccc(Cl)cc2c1-c1ccccc1 stay below 60%?
output: true

input: Does the reported growth of CCOC(=O)c1nn(-c2ccc(S(N)(=O)=O)cc2)c2nc(C)cc(=O)n12 stay below 60%?
output: false
